target: UniProt Q8IDB0; assay: IC50 for competition of protein binding to Kinobeads; conditions: assay detail: Kinobeads competition in P. falciparum blood-stage lysate
parameter: IC50

I have this molecule here, O=c1[nH]c2ccc(Cl)cc2c(NC2CN3CCC2CC3)c1-c1nc2ccccc2[nH]1 (stereo unspecified) , and I need its recorded IC50.
> 20 µM

###

biological target: UniProt Q8IAZ3; test: apparent dissociation constant (Kd app) from Kinobeads competition; conditions: assay detail: Kinobeads competition in P. falciparum blood-stage lysate
parameter: pKd
The value called pKd is obtained by taking minus log10 of the concentration in mol/L.

I have this molecule here, O=c1[nH]c2ccc(Cl)cc2c(NC2CN3CCC2CC3)c1-c1nc2ccccc2[nH]1 (stereo unspecified) , and I need its recorded pKd.
5.04

###

target: UniProt Q8IJX3; assay: IC50 for competition of protein binding to Kinobeads; settings: assay detail: Kinobeads competition in P. falciparum blood-stage lysate
parameter: IC50

I have this compound here, O=c1[nH]c2ccc(Cl)cc2c(NC2CN3CCC2CC3)c1-c1nc2ccccc2[nH]1 (stereo unspecified) , and I need its recorded IC50.
> 20 µM

###

biological target: UniProt Q8IKA0; experiment: IC50 for competition of protein binding to Kinobeads; conditions: assay detail: Kinobeads competition in P. falciparum blood-stage lysate
pIC50: −log10 of the molar value.
parameter: pIC50

Report pIC50 for O=c1[nH]c2ccc(Cl)cc2c(NC2CN3CCC2CC3)c1-c1nc2ccccc2[nH]1 (stereo unspecified) tested on UniProt Q8IKA0.
< 4.70

###

biological target: UniProt Q8IJC7; test: IC50 for competition of protein binding to Kinobeads; conditions: assay detail: Kinobeads competition in P. falciparum blood-stage lysate
parameter: IC50

I have this molecule here, O=c1[nH]c2ccc(Cl)cc2c(NC2CN3CCC2CC3)c1-c1nc2ccccc2[nH]1 (stereo unspecified) [CHIR-124] , and I need its recorded IC50.
> 20 µM

###

molecular target: UniProt Q8I6T2; test: IC50 for competition of protein binding to Kinobeads; details: assay detail: Kinobeads competition in P. falciparum blood-stage lysate
parameter: IC50

I have this molecule here, O=c1[nH]c2ccc(Cl)cc2c(NC2CN3CCC2CC3)c1-c1nc2ccccc2[nH]1 (stereo unspecified) , and I need its recorded IC50.
> 20 µM

###

target: UniProt Q8IDM3; assay: IC50 for competition of protein binding to Kinobeads; settings: assay detail: Kinobeads competition in P. falciparum blood-stage lysate
pIC50: −log10 of the molar value.
parameter: pIC50

Report pIC50 for O=c1[nH]c2ccc(Cl)cc2c(NC2CN3CCC2CC3)c1-c1nc2ccccc2[nH]1 (stereo unspecified) tested on UniProt Q8IDM3.
< 4.70

###

Molecular target: UniProt Q9TY96
Sequence (whole entry): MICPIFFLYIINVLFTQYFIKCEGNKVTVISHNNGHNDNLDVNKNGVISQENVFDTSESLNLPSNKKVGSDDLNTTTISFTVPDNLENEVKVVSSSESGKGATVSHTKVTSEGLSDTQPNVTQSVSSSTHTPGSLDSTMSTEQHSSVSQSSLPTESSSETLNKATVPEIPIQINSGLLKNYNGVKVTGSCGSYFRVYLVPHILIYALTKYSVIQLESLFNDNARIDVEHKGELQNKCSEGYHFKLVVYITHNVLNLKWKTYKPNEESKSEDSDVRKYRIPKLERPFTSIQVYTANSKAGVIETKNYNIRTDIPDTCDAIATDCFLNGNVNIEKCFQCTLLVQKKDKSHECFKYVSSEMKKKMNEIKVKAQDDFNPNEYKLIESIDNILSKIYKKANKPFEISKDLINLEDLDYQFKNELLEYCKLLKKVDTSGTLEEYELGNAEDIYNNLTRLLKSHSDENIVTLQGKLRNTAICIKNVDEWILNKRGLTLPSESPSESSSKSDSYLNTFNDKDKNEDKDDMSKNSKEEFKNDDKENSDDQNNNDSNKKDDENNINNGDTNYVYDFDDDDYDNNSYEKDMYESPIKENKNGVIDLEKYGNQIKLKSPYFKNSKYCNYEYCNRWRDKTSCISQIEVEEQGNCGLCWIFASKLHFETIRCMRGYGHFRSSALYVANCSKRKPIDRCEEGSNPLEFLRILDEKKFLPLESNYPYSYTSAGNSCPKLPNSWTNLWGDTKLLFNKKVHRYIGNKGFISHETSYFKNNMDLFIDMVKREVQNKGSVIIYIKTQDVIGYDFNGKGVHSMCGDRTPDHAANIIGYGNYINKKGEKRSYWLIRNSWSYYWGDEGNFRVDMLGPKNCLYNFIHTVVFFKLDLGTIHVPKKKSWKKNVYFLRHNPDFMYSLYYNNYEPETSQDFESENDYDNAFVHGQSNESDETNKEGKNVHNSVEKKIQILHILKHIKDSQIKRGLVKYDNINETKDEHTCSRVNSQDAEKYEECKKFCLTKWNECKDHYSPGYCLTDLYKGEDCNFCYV
Assay: IC50 for competition of protein binding to Kinobeads
Conditions: assay detail: Kinobeads competition in P. falciparum blood-stage lysate
pIC50: −log10 of the molar value.
parameter: pIC50

Report pIC50 for O=c1[nH]c2ccc(Cl)cc2c(NC2CN3CCC2CC3)c1-c1nc2ccccc2[nH]1 (stereo unspecified) tested on UniProt Q9TY96.
< 4.70

###

biological target: UniProt Q8I616; experiment: IC50 for competition of protein binding to Kinobeads; settings: assay detail: Kinobeads competition in P. falciparum blood-stage lysate
parameter: IC50

I have this molecule here, O=c1[nH]c2ccc(Cl)cc2c(NC2CN3CCC2CC3)c1-c1nc2ccccc2[nH]1 (stereo unspecified) , and I need its recorded IC50.
> 20 µM

###

target: UniProt Q8IIR9; test: IC50 for competition of protein binding to Kinobeads; conditions: assay detail: Kinobeads competition in P. falciparum blood-stage lysate
parameter: IC50

I have this molecule here, O=c1[nH]c2ccc(Cl)cc2c(NC2CN3CCC2CC3)c1-c1nc2ccccc2[nH]1 (stereo unspecified) , and I need its recorded IC50.
> 20 µM

###

molecular target: UniProt Q8IKA6; experiment: IC50 for competition of protein binding to Kinobeads; conditions: assay detail: Kinobeads competition in P. falciparum blood-stage lysate
parameter: IC50

I have this molecule here, O=c1[nH]c2ccc(Cl)cc2c(NC2CN3CCC2CC3)c1-c1nc2ccccc2[nH]1 (stereo unspecified) , and I need its recorded IC50.
> 20 µM

###

biological target: UniProt C0H517; assay: IC50 for competition of protein binding to Kinobeads; settings: assay detail: Kinobeads competition in P. falciparum blood-stage lysate
parameter: IC50

I have this compound here, O=c1[nH]c2ccc(Cl)cc2c(NC2CN3CCC2CC3)c1-c1nc2ccccc2[nH]1 (stereo unspecified) [CHIR-124] , and I need its recorded IC50.
> 20 µM

###

biological target: UniProt Q8IKL1; test: IC50 for competition of protein binding to Kinobeads; conditions: assay detail: Kinobeads competition in P. falciparum blood-stage lysate
parameter: IC50

I have this compound here, O=c1[nH]c2ccc(Cl)cc2c(NC2CN3CCC2CC3)c1-c1nc2ccccc2[nH]1 (stereo unspecified) , and I need its recorded IC50.
> 20 µM

###

molecular target: UniProt Q8ILS0; test: IC50 for competition of protein binding to Kinobeads; conditions: assay detail: Kinobeads competition in P. falciparum blood-stage lysate
pIC50: −log10 of the molar value.
parameter: pIC50

Report pIC50 for O=c1[nH]c2ccc(Cl)cc2c(NC2CN3CCC2CC3)c1-c1nc2ccccc2[nH]1 (stereo unspecified) tested on UniProt Q8ILS0.
< 4.70

###

target: UniProt C0H564; test: IC50 for competition of protein binding to Kinobeads; conditions: assay detail: Kinobeads competition in P. falciparum blood-stage lysate
parameter: IC50

Report IC50 for O=c1[nH]c2ccc(Cl)cc2c(NC2CN3CCC2CC3)c1-c1nc2ccccc2[nH]1 (stereo unspecified) tested on UniProt C0H564.
> 20 µM

###

biological target: UniProt Q8I527; assay: IC50 for competition of protein binding to Kinobeads; conditions: assay detail: Kinobeads competition in P. falciparum blood-stage lysate
parameter: IC50

I have this molecule here, O=c1[nH]c2ccc(Cl)cc2c(NC2CN3CCC2CC3)c1-c1nc2ccccc2[nH]1 (stereo unspecified) , and I need its recorded IC50.
> 20 µM

###

molecular target: UniProt Q8IJN8; test: IC50 for competition of protein binding to Kinobeads; conditions: assay detail: Kinobeads competition in P. falciparum blood-stage lysate
parameter: IC50

I have this compound here, O=c1[nH]c2ccc(Cl)cc2c(NC2CN3CCC2CC3)c1-c1nc2ccccc2[nH]1 (stereo unspecified) , and I need its recorded IC50.
> 20 µM

###

biological target: UniProt Q8IBQ6; test: IC50 for competition of protein binding to Kinobeads; settings: assay detail: Kinobeads competition in P. falciparum blood-stage lysate
pIC50: −log10 of the molar value.
parameter: pIC50

Report pIC50 for O=c1[nH]c2ccc(Cl)cc2c(NC2CN3CCC2CC3)c1-c1nc2ccccc2[nH]1 (stereo unspecified) tested on UniProt Q8IBQ6.
< 4.70

Data credit: the supplement of paper PMC13386468
